Where do these numbers come from? They come from ChEMBL document CHEMBL1157539.

Answer each item with its documented Inhibition.
# System: HepG2
# PROCEDURE_TEXT: GSK_TCMDC: Percent inhibition of human HepG2 cell line. Test compounds present at 10uM.
# Format: functional
Just the number in %, nothing appended.

Problem: Which Inhibition value is on record for CN(C)CCC1CCCc2ccc(NC(=O)Nc3ccc(-c4ccncc4)c4ccccc34)cc21.Cl (configuration not stated) ?
Solution: 34

Problem: Which Inhibition value is on record for Cl.N=c1n(Cc2ccccc2)c2ccccc2n1CC(O)c1ccc(Cl)cc1 (configuration not stated) ?
Solution: 26

Problem: Which Inhibition value is on record for CCCC(C)Nc1nc(C)cc(N[C@@H](CC(C)C)C(=O)NCCc2ccccc2)n1.O=C(O)C(F)(F)F (some centres not stated) ?
Solution: 9

Problem: Which Inhibition value is on record for O=C(O)C(F)(F)F.O=S(=O)(NCCN1CCCC1)c1cccc(-c2ccc(CNCc3ccc(F)cc3)cc2)c1 ?
Solution: 38

Problem: Which Inhibition value is on record for COc1cc(/C=N/Nc2nc(Nc3ccccc3)nc(Nc3ccccc3)n2)ccc1OCc1ccccc1[N+](=O)[O-] ?
Solution: 8

Problem: Which Inhibition value is on record for O=c1c(NCCCN(Cc2ccc(F)cc2)c2ccccn2)c(NCc2cccnc2)c1=O ?
Solution: 0

Problem: Which Inhibition value is on record for CN1CCC(Oc2ccc(CN3CC[C@H](NC(=O)c4cccc(C#N)c4)C3)c3ccccc23)C1.O=C(O)C(F)(F)F (some centres not stated) ?
Solution: 10

Problem: Which Inhibition value is on record for O=C(O)C(F)(F)F.c1cc(CN2CCN(CCN3CCOCC3)CC2)cc(-c2ccc(-c3nc4ccccc4[nH]3)cc2)c1 ?
Solution: 23

Problem: Which Inhibition value is on record for CC(=O)Nc1nc(C(=O)Nc2ccc(-c3cccc(-c4nc5cccc(C)c5[nH]4)c3)cc2)cs1 ?
Solution: 100

Problem: Which Inhibition value is on record for CCNc1cc(C(=O)N[C@@H](Cc2ccccc2)[C@H](O)CNCCc2cccc3ccccc23)cc(N2CCCC2=O)c1.O=CO ?
Solution: 12

Problem: Which Inhibition value is on record for Cl.N=C(N)Nc1nc(-c2ccc(NC(=N)N3CCC[C@H]3CN3CCCC3)cc2)cs1 ?
Solution: 6

Problem: Which Inhibition value is on record for Cc1n[nH]c2ccc(-c3cc(OC[C@@H](N)Cc4ccccc4)cnc3-c3ccccc3OCc3cccc(F)c3)cc12.O=C(O)C(F)(F)F ?
Solution: 55

Problem: Which Inhibition value is on record for COc1ccc(CNc2ccnc(-n3cnc4cc(C)c(C)cc43)n2)cc1Cl.O=C(O)C(F)(F)F ?
Solution: 6

Problem: Which Inhibition value is on record for Fc1ccc2[nH]c(-c3ccc(-c4cccc(CN5CCCCC5)c4)cc3)nc2c1.O=C(O)C(F)(F)F ?
Solution: 10

Problem: Which Inhibition value is on record for CC(C)(C)OC(=O)NCc1ccc(Nc2nnc(-c3ccc(OCC(=O)NC[C@@H]4CC[C@H]5C[C@@H]4C5(C)C)c([N+](=O)[O-])c3)o2)cc1 ?
Solution: 29

Problem: Which Inhibition value is on record for O=C(N[C@@H](CC1CCCCC1)C(=O)NCCc1ccc(Cl)c(Cl)c1)c1ccc(O)c(-c2ccc(Cl)c(Cl)c2)c1 ?
Solution: 0

Problem: Which Inhibition value is on record for CCN(CC)CC#Cc1ccc2[nH]c(C)c(Cl)c(=O)c2c1 ?
Solution: 11
